Origin of measurements: paper PMC11062922

Tested on: PRKX
Parameters: species or system human, MV4-11 + K-562 + COLO205 + SK-N-BE2 + OVCAR-8
conditionNotes: read-out: apparent Kd; compound concentrations:100 nM and 1000 nM (sheet 'Samples'); n = 1
Decision: potency estimated from few doses beneath 400 nM gives condition met; potency estimated from few doses meeting or exceeding 400 nM gives condition not met.

CCn1c(-c2nonc2N)nc2c(C#CC(C)(C)O)ncc(OC[C@@H]3CCCN3)c21.O=C(O)C(F)(F)F [GSK614526A]    condition met
CCn1c(-c2nonc2N)nc2c(C#CC(C)(C)O)ncc(OCCCCN)c21.CCn1c(-c2nonc2N)nc2c(C#CC(C)(C)O)ncc(OCCCCN)c21.O=C(O)C(F)(F)F.O=C(O)C(F)(F)F [GSK507274A]    condition met
CCn1c(-c2nonc2N)nc2cncc(C(=O)N3CCNCC3)c21.Cl    condition not met
Cl.Cl.NC[C@H](CC1CCCCC1)NC(=O)c1cc(Br)c(-c2ccnc3[nH]ccc23)s1.NC[C@H](CC1CCCCC1)NC(=O)c1cc(Br)c(-c2ccnc3[nH]ccc23)s1 [GSK1581427A]    condition not met
CCn1c(-c2nonc2N)nc2c(C#CC(C)(C)O)nc(OCCN)cc21.CCn1c(-c2nonc2N)nc2c(C#CC(C)(C)O)nc(OCCN)cc21.Cl.Cl [GSK902056A]    condition met
Nc1nccc(-c2ccc3c(N)n[nH]c3c2)n1 [GSK1034945A]    condition not met
COc1cc(C2=NC(c3ccc(Cl)cc3F)C(C(=O)Nc3ccc4[nH]ncc4c3)=C(C)N2)ccn1.O=C(O)C(F)(F)F (centres unmarked) [GSK534911A]    condition not met

Then this compound:
[Q] Lab note: confirm whether the reported potency estimated from few doses for this compound is below 400 nM, equality not counting. compound: "O=C1NC(=O)C(N2CCc3ccccc32)=C1c1ccccc1Cl"
[A] condition met
